# Test system: HepG2, human hepatoma cells
# assayProtocol: Growth of cancer cell lines: HepG2
# Format: cell-based
# details: mean ± S.D., n = 3; read-out: IC50 against growth of HepG2
I'd appreciate it if you could supply pIC50 values for the items below.
Answers are plain numbers, as −log10 of the molar value.

Use the examples below as a reference point.
Lookup result for C[C@H]1CC[C@@]2(OC1)O[C@H]1C[C@H]3[C@@H]4CC[C@@H]5C[C@@H](O[C@@H]6O[C@H](CO)[C@H](O)[C@H](O)[C@H]6O[C@@H]6O[C@H](CO)[C@@H](O)[C@H](O)[C@H]6O)CC[C@]5(C)[C@H]4CC[C@]3(C)[C@H]1[C@@H]2C ; measured pIC50: 5.14

Short answer for C[C@H]1CC[C@@]2(OC1)O[C@H]1C[C@H]3[C@@H]4CC[C@@H]5C[C@@H](O)CC[C@]5(C)[C@H]4CC[C@]3(C)[C@H]1[C@@H]2C : pIC50 was 4.49

Further cases:
The reported pIC50 of the compound C[C@H]1CC[C@@]2(OC1)O[C@H]1C[C@H]3[C@@H]4CC[C@@H]5C[C@@H](O[C@@H]6O[C@H](CO)[C@H](O)[C@H](O)[C@H]6O)CC[C@]5(C)[C@H]4CC[C@]3(C)[C@H]1[C@@H]2C was 4.98

---

Give measured pIC50 for each item. Keep answers brief.
# Test system: Aβ1-42 production in SweAPP N2A cells (N2A-APPswe)
# assayProtocol: Aβ1-42 ELISA of conditioned medium of SweAPP N2A cells
# Assay type: cell-based
# details: Table 4; N2A-APPswe cells, mean ± S.D, n ≥ 3; read-out: IC50 in lowering Aβ42 production
One number for each entry, as −log10 of the molar value.

Summary for this molecule, C[C@H]1CC[C@@]2(OC1)O[C@H]1C[C@H]3[C@@H]4CC[C@@H]5C[C@@H](O[C@@H]6O[C@H](CO)[C@H](O[C@@H]7O[C@H](CO)[C@@H](O)[C@H](O)[C@H]7O)[C@H](O)[C@H]6O[C@@H]6O[C@H](CO)[C@@H](O)[C@H](O)[C@H]6O)CC[C@]5(C)[C@H]4CC[C@]3(C)[C@H]1[C@@H]2C : pIC50 is 5.38

Please state pIC50 for every molecule in the list that follows.
1. C[C@@H]1CC[C@@]2(OC1)O[C@H]1C[C@H]3[C@@H]4CC[C@@H]5CC(=O)CC[C@]5(C)[C@H]4CC[C@]3(C)[C@H]1[C@@H]2C
2. C[C@H]1CC[C@@]2(OC1)O[C@H]1C[C@H]3[C@@H]4CC[C@@H]5C[C@@H](O[C@@H]6O[C@H](CO)[C@H](O)[C@H](O)[C@H]6O)CC[C@]5(C)[C@H]4CC[C@]3(C)[C@H]1[C@@H]2C
3. C[C@H]1CC[C@@]2(OC1)O[C@H]1C[C@H]3[C@@H]4CC[C@@H]5C[C@@H](O)CC[C@]5(C)[C@H]4CC[C@]3(C)[C@H]1[C@@H]2C
4. C[C@H]1CC[C@@]2(OC1)O[C@H]1C[C@H]3[C@@H]4CC[C@@H]5C[C@@H](O[C@@H]6O[C@H](CO)[C@H](O)[C@H](O)[C@H]6O[C@@H]6O[C@H](CO)[C@@H](O)[C@H](O)[C@H]6O)CC[C@]5(C)[C@H]4CC[C@]3(C)[C@H]1[C@@H]2C
5. C[C@H]1CC[C@@]2(OC1)O[C@H]1C[C@H]3[C@@H]4CC[C@@H]5C[C@@H](O[C@@H]6O[C@H](CO)[C@@H](O)[C@H](O)[C@H]6O)CC[C@]5(C)[C@H]4CC[C@]3(C)[C@H]1[C@@H]2C [Asparagoside A]
6. C[C@H]1CC[C@@]2(OC1)O[C@H]1C[C@H]3[C@@H]4C[C@@H](O)[C@@H]5C[C@@H](O)CC[C@]5(C)[C@H]4CC[C@]3(C)[C@H]1[C@@H]2C

1. 4.30
2. 5.21
3. 4.28
4. 5.64
5. 5.22
6. 4.35

---

Kindly supply the reported pIC50 values for the records listed here.
# Test system: Aβ1-42 production in SweAPP N2A cells (N2A-APPswe)
# assayProtocol: Aβ1-42 ELISA of conditioned medium of SweAPP N2A cells
# Assay type: cell-based
# details: Table 4; N2A-APPswe cells, mean ± S.D, n ≥ 3; read-out: IC50 in lowering Aβ42 production
pIC50: −log10 of the molar value.

Reported pIC50 of C[C@@H]1CC[C@@]2(OC1)O[C@H]1C[C@H]3[C@@H]4CC=C5C[C@@H](O[C@@H]6O[C@H](CO)[C@H](O)[C@H](O)[C@H]6O)CC[C@]5(C)[C@H]4CC[C@]3(C)[C@H]1[C@@H]2C [Capsicoside A3] : < 4.00

The compound listed as C[C@H]1CC[C@@]2(OC1)O[C@H]1C[C@H]3[C@@H]4CC[C@@H]5C[C@H](O)CC[C@]5(C)[C@H]4CC[C@]3(C)[C@H]1[C@@H]2C [Episarsasapogenin] shows pIC50 equal to < 4.00

Data point: C[C@@H]1CC[C@@]2(OC1)O[C@H]1C[C@H]3[C@@H]4C[C@H](O)[C@H]5C[C@@H](O)CC[C@]5(C)[C@H]4CC[C@]3(C)[C@H]1[C@@H]2C [5α-H, 6α-OH diosgenin] ; pIC50 = < 4.00

pIC50 reading for C[C@@H]1CC[C@@]2(OC1)O[C@H]1C[C@H]3[C@@H]4C[C@@H](O)[C@@H]5C[C@@H](O)CC[C@]5(C)[C@H]4CC[C@]3(C)[C@H]1[C@@H]2C [5β-H, 6β-OH diosgenin] : < 4.00

Please fill in: pIC50 reported for C[C@@H]1CC[C@@]2(OC1)O[C@H]1C[C@H]3[C@@H]4CC=C5C[C@@H](O)CC[C@]5(C)[C@H]4CC[C@]3(C)[C@H]1[C@@H]2C [Diosgenin] = < 4.00

Could I get pIC50 for every one of these entries?
1. CO[C@]1(CC[C@H](C)CO[C@@H]2O[C@H](CO)[C@@H](O)[C@H](O)[C@H]2O)O[C@H]2C[C@H]3[C@@H]4CC[C@@H]5C[C@@H](O[C@@H]6O[C@H](CO)[C@H](O)[C@H](O)[C@H]6O[C@@H]6O[C@H](CO)[C@@H](O)[C@H](O)[C@H]6O)CC[C@]5(C)[C@H]4CC[C@]3(C)[C@H]2[C@@H]1C [Timosaponin BI]
2. C[C@H]1CC[C@@]2(OC1)O[C@H]1C[C@H]3[C@@H]4CC=C5C[C@@H](O)CC[C@]5(C)[C@H]4CC[C@]3(C)[C@H]1[C@@H]2C [Yamogenin]
3. CC(CO)CCC1OC2CC3C4CCC5CC(O)CCC5(C)C4CCC3(C)C2C1C (stereo not shown) [Dihydrosarsasapogenin]

1: < 4.00; 2: < 4.00; 3: < 4.00

Please state pIC50 for every compound in the list that follows.
1. C[C@H]1CC[C@@]2(OC1)O[C@H]1C[C@H]3[C@@H]4C[C@H](O)[C@H]5C[C@@H](O)CC[C@]5(C)[C@H]4CC[C@]3(C)[C@H]1[C@@H]2C [5α-H, 6α-OH yamogenin]
2. CC(C)[C@@H](C)/C=C/[C@@H](C)[C@H]1CC[C@H]2C3=CC=C4C[C@@H](O)CC[C@]4(C)[C@H]3CC[C@]12C [Ergosterol, reference compound]

1. < 4.00
2. < 4.00

Data origin, for the record: patent US12234258B2
